# credit: ChEMBL document CHEMBL5143690

experiment: Aqueous solubility in phosphate buffer at pH 7.4 incubated for 4 hrs by HPLC analysis; type: physicochemical
property: solubility at 4 h (µg/mL)
Only the number, expressed in µg/mL, is required.

Record request: solubility at 4 h value, item O=C(/C=C/c1ccc([N+](=O)[O-])o1)c1ccc(Nc2nc3cc(Cl)ccc3o2)cc1
2.5

----------
system: Mycolicibacterium fortuitum; assay: Antimycobacterial activity against Mycobacterium fortuitum ATCC 6841 assessed as inhibition of bacterial growth after 48 hrs by resazurin microtitre assay; type: functional
property: MIC

Record request: MIC value, item COc1cc(/C=C/C(=O)c2cccc(Nc3nc4ccccc4o3)c2)cc(OC)c1OC
> 64 µg/mL

Same read-out for O=C(/C=C/c1ccncc1)c1ccc(Nc2nc3ccccc3o2)cc1 ?
> 64 µg/mL

Same read-out for O=C(/C=C/c1cccc([N+](=O)[O-])c1)c1ccc(Nc2nc3ccccc3o2)cc1 ?
> 64 µg/mL

Same read-out for O=C(/C=C/c1ccc(Br)cc1)c1ccc(Nc2nc3ccccc3o2)cc1 ?
> 64 µg/mL

Same read-out for O=C(O)c1ccc(/C=C/C(=O)c2ccc(Nc3nc4ccccc4o3)cc2)cc1 ?
> 64 µg/mL

Same read-out for O=C(/C=C/c1ccccc1)c1ccc(Nc2nc3ccccc3o2)cc1 ?
> 64 µg/mL

Same read-out for COc1cc(/C=C/C(=O)c2ccc(Nc3nc4cc([N+](=O)[O-])ccc4o3)cc2)cc(OC)c1OC ?
> 64 µg/mL

Same read-out for COc1ccc(C(=O)/C=C/c2ccc([N+](=O)[O-])o2)cc1Nc1nc2ccccc2o1 ?
> 64 µg/mL

Same read-out for COc1cc(/C=C/C(=O)c2ccc(Nc3nc4ccccc4o3)cc2)cc(OC)c1OC ?
> 64 µg/mL

Same read-out for COc1cc(OC)c(OC)cc1/C=C/C(=O)c1ccc(Nc2nc3ccccc3o2)cc1 ?
> 64 µg/mL

Same read-out for O=C(/C=C/c1ccccc1F)c1ccc(Nc2nc3ccccc3o2)cc1 ?
> 64 µg/mL

Same read-out for O=C(/C=C/c1ccccc1Cl)c1ccc(Nc2nc3ccccc3o2)cc1 ?
> 64 µg/mL

Same read-out for O=C(/C=C/c1ccc(Cl)cc1)c1ccc(Nc2nc3ccccc3o2)cc1 ?
> 64 µg/mL

Same read-out for CN(C)c1ccc(/C=C/C(=O)c2ccc(Nc3nc4ccccc4o3)cc2)cc1 ?
> 64 µg/mL

Same read-out for COc1ccc(/C=C/C(=O)c2ccc(Nc3nc4ccccc4o3)cc2)cc1OC ?
> 64 µg/mL

Same read-out for O=C(/C=C/c1ccc([N+](=O)[O-])o1)c1ccc(Nc2nc3ccccc3o2)cc1 ?
> 64 µg/mL

Same read-out for O=C(/C=C/c1ccc([N+](=O)[O-])o1)c1ccc(Nc2nc3cc([N+](=O)[O-])ccc3o2)cc1 ?
> 64 µg/mL

Same read-out for O=C(/C=C/c1ccc(Cl)cc1Cl)c1ccc(Nc2nc3ccccc3o2)cc1 ?
> 64 µg/mL

Same read-out for O=C(/C=C/c1ccc([N+](=O)[O-])o1)c1cccc(Nc2nc3ccccc3o2)c1 ?
> 64 µg/mL

Same read-out for COc1cc(/C=C/C(=O)c2ccc(Nc3nc4cc(Cl)ccc4o3)cc2)cc(OC)c1OC ?
> 64 µg/mL

----------
I'd appreciate it if you could supply log10 of MIC values for the items below.
system: Mycobacterium tuberculosis; assay: Antimycobacterial activity against Mycobacterium tuberculosis H37Rv ATCC 27294 assessed as inhibition of bacterial growth measured after 7 days by resazurin microtitre assay; assay type: functional; conditions: H37Rv ATCC 27294, 168 h, time 7 day
Log10 applied to MIC; unit prior to transform: µg/mL.

Record request: log10 of MIC value, item O=C(/C=C/c1ccc([N+](=O)[O-])cc1)c1ccc(Nc2nc3ccccc3o2)cc1
1.51

Same read-out for COc1ccc(C(=O)/C=C/c2cc(OC)c(OC)c(OC)c2)cc1Nc1nc2ccccc2o1 ?
1.81

Same read-out for COc1cc(OC)c(OC)cc1/C=C/C(=O)c1ccc(Nc2nc3ccccc3o2)cc1 ?
1.20

Same read-out for COc1cc(/C=C/C(=O)c2ccc(Nc3nc4cc([N+](=O)[O-])ccc4o3)cc2)cc(OC)c1OC ?
1.20

Same read-out for Cc1ccc2oc(Nc3ccc(C(=O)/C=C/c4ccc([N+](=O)[O-])o4)cc3)nc2c1 ?
-1.22

Same read-out for COc1cc(/C=C/C(=O)c2ccc(Nc3nc4cc(C(C)(C)C)ccc4o3)cc2)cc(OC)c1OC ?
1.51

Same read-out for CN(C)c1ccc(/C=C/C(=O)c2ccc(Nc3nc4ccccc4o3)cc2)cc1 ?
1.81

Same read-out for O=C(/C=C/c1ccncc1)c1ccc(Nc2nc3ccccc3o2)cc1 ?
1.20

Same read-out for NNC(=O)c1ccncc1 ?
-1.52

Same read-out for CC(=O)N1N=C(c2ccc3oc(-c4ccc(O)cc4)nc3c2)CC1c1cccs1 (centres undefined) ?
-0.10

Same read-out for COc1cc(/C=C/C(=O)c2ccc(Nc3nc4ccccc4o3)cc2)cc(OC)c1OC ?
0.90

Same read-out for COc1cc(/C=C/C(=O)c2cccc(Nc3nc4ccccc4o3)c2)cc(OC)c1OC ?
0.90

Same read-out for CN[C@@H]1[C@H](O[C@H]2[C@H](O[C@H]3[C@H](O)[C@@H](O)[C@H](N=C(N)N)[C@@H](O)[C@@H]3N=C(N)N)O[C@@H](C)[C@]2(O)C=O)O[C@@H](CO)[C@H](O)[C@H]1O ?
0.00

Same read-out for O=C(/C=C/c1ccc([N+](=O)[O-])o1)c1cccc(Nc2nc3ccccc3o2)c1 ?
-1.22

Same read-out for COc1ccc(C(=O)/C=C/c2ccc([N+](=O)[O-])o2)cc1Nc1nc2ccccc2o1 ?
-0.60

Same read-out for CC(C)(C)c1ccc2oc(Nc3ccc(C(=O)/C=C/c4ccc([N+](=O)[O-])o4)cc3)nc2c1 ?
-0.30

----------
assay: Selectivity index, ratio of CC50 for African green monkey Vero cells to MIC for Mycobacterium tuberculosis H37Rv ATCC 27294; assay type: toxicity; settings: read-out: Selectivity Index
I'd appreciate it if you could supply selectivity ratio values for the items below.

Record request: selectivity ratio value, item O=C(/C=C/c1ccc([N+](=O)[O-])o1)c1ccc(Nc2nc3cc([N+](=O)[O-])ccc3o2)cc1
> 800

Same read-out for COc1ccc(C(=O)/C=C/c2ccc([N+](=O)[O-])o2)cc1Nc1nc2ccccc2o1 ?
< 10

Same read-out for CC(C)(C)c1ccc2oc(Nc3ccc(C(=O)/C=C/c4ccc([N+](=O)[O-])o4)cc3)nc2c1 ?
< 10

----------
I'd appreciate it if you could supply MIC values for the items below.
system: Mycobacterium tuberculosis; assay: Antimycobacterial activity against Mycobacterium tuberculosis H37Rv ATCC 27294 assessed as inhibition of bacterial growth measured after 7 days by resazurin microtitre assay; format: functional; settings: H37Rv ATCC 27294, 168 h, time 7 day

Record request: MIC value, item O=C(O)c1ccc(/C=C/C(=O)c2ccc(Nc3nc4ccccc4o3)cc2)cc1
> 64 µg/mL

Same read-out for O=C(/C=C/c1ccccc1Cl)c1ccc(Nc2nc3ccccc3o2)cc1 ?
> 64 µg/mL

Same read-out for Cc1ccc(/C=C/C(=O)c2ccc(Nc3nc4ccccc4o3)cc2)cc1 ?
> 64 µg/mL
